test: Homolysis kinetics of alkoxyamines by EPR (growth of nitroxide); type: physicochemical; conditions: in t-BuPh; by Equation (2) from kd and T, A = 2.4 10^14 s^−1; mixture of diastereoisomers
Exercise: for every item that follows, state its recorded Activation energy Ea.
Field: numeric (kcal/mol). Do not append units.

Input CC(ON1C(C)(C)CCCC1(C)C)c1ccc(NC(=O)[C@H](Cc2ccccc2)NC(=O)OC(C)(C)C)cc1 (mixture of isomers) . Output Activation energy Ea: 31.81

Input CC(ON1C(C)(C)CCCC1(C)C)c1ccc(NC(=O)[C@H](Cc2ccccc2)NC(=O)[C@@H](NC(=O)[C@H](Cc2ccccc2)NC(=O)OC(C)(C)C)C(C)C)cc1 (some centres unmarked) . Output Activation energy Ea: 31.79

Input CC(ON1C(C)(C)CCCC1(C)C)c1ccc(NC(=O)[C@H](Cc2ccccc2)NC(=O)[C@@H](NC(=O)[C@@H](N)Cc2ccccc2)C(C)C)cc1 (some centres unmarked) . Output Activation energy Ea: 31.57

Input CC(ON1C(C)(C)CCCC1(C)C)c1ccc(NC(=O)[C@@H](Cc2ccccc2)NC(=O)[C@H](NC(=O)[C@H](N)Cc2ccccc2)C(C)C)cc1 (some centres unmarked) . Output Activation energy Ea: 31.72

Input CC(ON1C(C)(C)CCCC1(C)C)c1ccc(NC(=O)[C@H](Cc2ccccc2)NC(=O)[C@@H](NC(=O)[C@H](Cc2ccccc2)NC(=O)CCC(=O)O)C(C)C)cc1 (some centres unmarked) . Output Activation energy Ea: 31.45

Input CC(ON1C(C)(C)CCCC1(C)C)c1ccc(NC(=O)[C@@H](Cc2ccccc2)NC(=O)OC(C)(C)C)cc1 (mixture of isomers) . Output Activation energy Ea: 31.6

Input CC(ON1C(C)(C)CCCC1(C)C)c1ccc(NC(=O)[C@H](Cc2ccccc2)NC(=O)[C@@H](NC(=O)[C@H](Cc2ccccc2)NC(=O)CCC(=O)OCc2ccccc2)C(C)C)cc1 (some centres unmarked) . Output Activation energy Ea: 31.57

Input CC(ON1C(C)(C)CCCC1(C)C)c1ccc(NC(=O)[C@@H](Cc2ccccc2)NC(=O)[C@H](NC(=O)[C@@H](Cc2ccccc2)NC(=O)OC(C)(C)C)C(C)C)cc1 (some centres unmarked) . Output Activation energy Ea: 31.6

====

test system: Vero cells; assay type: cell-based; details: 48 h
quantity kind: CC50

Input CCc1ccc(NC(=O)[C@@H](Cc2ccccc2)NC(=O)[C@H](NC(=O)[C@H](N)Cc2ccccc2)C(C)C)cc1 [P22D] . Output CC50: 11 µM

Input CC(ON1C(C)(C)CCCC1(C)C)c1ccc(NC(=O)[C@@H](Cc2ccccc2)NC(=O)[C@H](NC(=O)[C@@H](Cc2ccccc2)NC(=O)OC(C)(C)C)C(C)C)cc1 (stereo partly shown) . Output CC50: > 50 µM

Input CC(ON1C(C)(C)CCCC1(C)C)c1ccc(NC(=O)[C@@H](Cc2ccccc2)NC(=O)[C@H](NC(=O)[C@H](N)Cc2ccccc2)C(C)C)cc1 (stereo partly shown) [A5D] . Output CC50: 2.2 ± 0.3 µM

Input CC(ON1C(C)(C)CCCC1(C)C)c1ccc(NC(=O)[C@@H](Cc2ccccc2)NC(=O)[C@H](NC(=O)[C@H](N)Cc2ccccc2)C(C)C)cc1 (stereo partly shown) [A4D] . Output CC50: 2.6 ± 0.3 µM

====

assay: Homolysis kinetics of alkoxyamines by EPR (growth of nitroxide); assay type: physicochemical; details: C–ON bond homolysis in t-BuPh, EPR, 0.1 mM alkoxyamine, O2 as alkyl radical scavenger, mixture of diastereoisomers; T (°C): A1L 128.0, A3L 125.0, A5L 130.0, A6L 125, A7L 126.5, A1D 122.5, A3D 119.8, A5D 130
quantity kind: Homolysis rate constant kd

Input CC(ON1C(C)(C)CCCC1(C)C)c1ccc(NC(=O)[C@@H](Cc2ccccc2)NC(=O)OC(C)(C)C)cc1 (mixture of isomers) . Output Homolysis rate constant kd: 9.6 10^−4 s^−1

Input CC(ON1C(C)(C)CCCC1(C)C)c1ccc(NC(=O)[C@H](Cc2ccccc2)NC(=O)[C@@H](NC(=O)[C@H](Cc2ccccc2)NC(=O)CCC(=O)OCc2ccccc2)C(C)C)cc1 (some centres unmarked) . Output Homolysis rate constant kd: 11.0 10^−4 s^−1

Input CC(ON1C(C)(C)CCCC1(C)C)c1ccc(NC(=O)[C@@H](Cc2ccccc2)NC(=O)[C@H](NC(=O)[C@@H](Cc2ccccc2)NC(=O)OC(C)(C)C)C(C)C)cc1 (some centres unmarked) . Output Homolysis rate constant kd: 9.6 10^−4 s^−1

Input CC(ON1C(C)(C)CCCC1(C)C)c1ccc(NC(=O)[C@H](Cc2ccccc2)NC(=O)[C@@H](NC(=O)[C@@H](N)Cc2ccccc2)C(C)C)cc1 (some centres unmarked) . Output Homolysis rate constant kd: 18 10^−4 s^−1

Input CC(ON1C(C)(C)CCCC1(C)C)c1ccc(NC(=O)[C@@H](Cc2ccccc2)NC(=O)[C@H](NC(=O)[C@H](N)Cc2ccccc2)C(C)C)cc1 (some centres unmarked) . Output Homolysis rate constant kd: 11.6 10^−4 s^−1

====

Assay: Homolysis kinetics of alkoxyamines by EPR (growth of nitroxide)
Type: physicochemical
Settings: in water/n-PrOH v/v 1:1; by Equation (2) from kd and T, A = 2.4 10^14 s^−1; mixture of diastereoisomers
Description: Preparation of alkoxyamines and reference samples. All reagents including anhydrous solvents used for the chemical synthesis were purchased from commercially available sources such as Merck, TCI, and Fluorochem, and were used without further purification. […] Homolysis constants were measured by EPR on an EMX Bruker spectrometer from 10^−4 M samples in tertbutyl benzene or in a mixture of H2O-nPrOH (1:1; v:v). […]
Exercise: for every item that follows, state its recorded Activation energy Ea.
Field: numeric (kcal/mol). Do not append units.

Input CC(ON1C(C)(C)CCCC1(C)C)c1ccc(NC(=O)[C@H](Cc2ccccc2)NC(=O)[C@@H](NC(=O)[C@H](Cc2ccccc2)NC(=O)CCC(=O)O)C(C)C)cc1 (stereo partly drawn) . Output Activation energy Ea: 30.93

Input CC(ON1C(C)(C)CCCC1(C)C)c1ccc(NC(=O)[C@@H](Cc2ccccc2)NC(=O)[C@H](NC(=O)[C@H](N)Cc2ccccc2)C(C)C)cc1 (stereo partly drawn) [A4D] . Output Activation energy Ea: 30.81

Input CC(ON1C(C)(C)CCCC1(C)C)c1ccc(NC(=O)[C@H](Cc2ccccc2)NC(=O)OC(C)(C)C)cc1 (mixture of isomers) . Output Activation energy Ea: 30.69

====

Exercise: for every item that follows, state its recorded Homolysis rate constant kd.
test: Homolysis kinetics of alkoxyamines by EPR (growth of nitroxide); assay type: physicochemical; conditions: C–ON bond homolysis in water/n-PrOH v/v 1:1, EPR, 0.1 mM alkoxyamine, O2 as alkyl radical scavenger, mixture of diastereoisomers; T (°C): A1L 95.1, A3L 94.5, A4L 94.6, A5L 94.0, A6L 94.8, A7L 94.3, A1D 93.5, A3D 92.6, A4D 95.0, A5D 94.6

Input CC(ON1C(C)(C)CCCC1(C)C)c1ccc(NC(=O)[C@@H](Cc2ccccc2)NC(=O)OC(C)(C)C)cc1 (mixture of isomers) [A1D] . Output Homolysis rate constant kd: 1.0 10^−4 s^−1

Input CC(ON1C(C)(C)CCCC1(C)C)c1ccc(NC(=O)[C@H](Cc2ccccc2)NC(=O)[C@@H](NC(=O)[C@H](Cc2ccccc2)NC(=O)CCC(=O)OCc2ccccc2)C(C)C)cc1 (stereo partly drawn) [A6L] . Output Homolysis rate constant kd: 1.1 10^−4 s^−1

Input CC(ON1C(C)(C)CCCC1(C)C)c1ccc(NC(=O)[C@H](Cc2ccccc2)NC(=O)OC(C)(C)C)cc1 (mixture of isomers) [A1L] . Output Homolysis rate constant kd: 1.5 10^−4 s^−1

Input CC(ON1C(C)(C)CCCC1(C)C)c1ccc(NC(=O)[C@@H](Cc2ccccc2)NC(=O)[C@H](NC(=O)[C@H](N)Cc2ccccc2)C(C)C)cc1 (stereo partly drawn) [A5D] . Output Homolysis rate constant kd: 1.3 10^−4 s^−1

Input CC(ON1C(C)(C)CCCC1(C)C)c1ccc(NC(=O)[C@@H](Cc2ccccc2)NC(=O)[C@H](NC(=O)[C@@H](Cc2ccccc2)NC(=O)OC(C)(C)C)C(C)C)cc1 (stereo partly drawn) [A3D] . Output Homolysis rate constant kd: 0.45 10^−4 s^−1

Input CC(ON1C(C)(C)CCCC1(C)C)c1ccc(NC(=O)[C@@H](Cc2ccccc2)NC(=O)[C@H](NC(=O)[C@H](N)Cc2ccccc2)C(C)C)cc1 (stereo partly drawn) [A4D] . Output Homolysis rate constant kd: 1.2 10^−4 s^−1

Input CC(ON1C(C)(C)CCCC1(C)C)c1ccc(NC(=O)[C@H](Cc2ccccc2)NC(=O)[C@@H](NC(=O)[C@@H](N)Cc2ccccc2)C(C)C)cc1 (stereo partly drawn) [A5L] . Output Homolysis rate constant kd: 1.3 10^−4 s^−1

Input CC(ON1C(C)(C)CCCC1(C)C)c1ccc(NC(=O)[C@H](Cc2ccccc2)NC(=O)[C@@H](NC(=O)[C@@H](N)Cc2ccccc2)C(C)C)cc1.O=C(O)C(F)(F)F (stereo partly drawn) [A4L] . Output Homolysis rate constant kd: 1.0 10^−4 s^−1

Input CC(ON1C(C)(C)CCCC1(C)C)c1ccc(NC(=O)[C@H](Cc2ccccc2)NC(=O)[C@@H](NC(=O)[C@H](Cc2ccccc2)NC(=O)OC(C)(C)C)C(C)C)cc1 (stereo partly drawn) [A3L] . Output Homolysis rate constant kd: 1.8 10^−4 s^−1
